Reference source for all entries: patent US7713937B2

Target: mouse kappa opioid receptor (mKOR) (Mus musculus, UniProt P33534)
Construct: Stimulation of Endogenous Mouse Kappa-Opioid Receptor in R1.G1 Cells
Sequence (P33534 whole entry): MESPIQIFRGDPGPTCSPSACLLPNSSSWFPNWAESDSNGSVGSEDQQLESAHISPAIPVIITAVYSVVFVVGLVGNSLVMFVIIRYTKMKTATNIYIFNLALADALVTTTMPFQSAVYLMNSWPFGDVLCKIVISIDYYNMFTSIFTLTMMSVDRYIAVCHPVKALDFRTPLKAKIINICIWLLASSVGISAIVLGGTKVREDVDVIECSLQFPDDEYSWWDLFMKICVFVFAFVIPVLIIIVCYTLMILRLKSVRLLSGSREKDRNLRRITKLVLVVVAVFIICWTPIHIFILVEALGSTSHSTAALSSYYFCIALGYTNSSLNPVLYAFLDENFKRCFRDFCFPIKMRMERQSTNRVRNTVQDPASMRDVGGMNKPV
Assay: cell-based
Square brackets hold non-standard residues; d marks the D form. Peptide text beside a SMILES is read from it. * marks the point of attachment. Piperidinyl(4-(1-Pro-OH)) = O=C(O)[C@@H]1CCCN1C1CCN(*)CC1; Piperidin1yl(4-NH2,4-COOH) = NC1(C(=O)O)CCN(*)CC1; d(hArg) = N=C(N)NCCCC[C@@H](N)C(=O)O; dAgb = N=C(N)NCC[C@@H](N)C(=O)O; Homopiperazinyl = C1CNCCN(*)C1; dAgp = N=C(N)NC[C@@H](N)C(=O)O; dNle = CCCC[C@@H](N)C(=O)O; Morpholide = C1CN(*)CCO1; Inp = O=C(O)C1CCNCC1
Just so you know, the groups by EC50 go like this: bottom end = under 0.05 nM, midrange = from 0.05 nM up to 0.2 nM, top end = 0.2 nM and over

Inquiry: # bin lookup: classify CC(C)C[C@@H](NC(=O)[C@@H](Cc1ccccc1)NC(=O)[C@H](N)Cc1ccccc1)C(=O)N[C@H](CCCCN)C(=O)N1CCS(=O)(=O)CC1 by its EC50
Reply text: midrange

Inquiry: Lab log: CC(C)C[C@@H](NC(=O)[C@@H](Cc1ccccc1)NC(=O)[C@H](N)Cc1ccccc1)C(=O)N[C@H](CCCN)C(=O)N1CCOC(C(=O)O)C1 (stereo partly shown) — assign EC50 category
Reply text: midrange

Inquiry: Textbook exercise: identify the category of the molecule given here, CC(C)C[C@@H](NC(=O)[C@@H](Cc1ccccc1)NC(=O)[C@H](N)Cc1ccccc1)C(=O)N[C@H](CCCCN)C(=O)N1CCN(c2ccccn2)CC1 , according to its measured value.
Reply text: bottom end

Inquiry: Textbook exercise: identify the category of the molecule given here, CNCCCC[C@@H](NC(=O)[C@@H](CC(C)C)NC(=O)[C@@H](Cc1ccccc1)NC(=O)[C@H](N)Cc1ccccc1)C(=O)N1CCCN(C(=N)N)CC1 , according to its measured value.
Reply text: bottom end

Inquiry: Hey, which category is CC(C)C[C@@H](NC(=O)[C@@H](Cc1ccccc1)NC(=O)[C@H](N)Cc1ccccc1)C(=O)N[C@H](CCNC(=N)N)C(=O)N1CCC(N)(C(=O)O)CC1 [Compound (11)] (H-[dF][dF][dL][dAgb]-{Piperidin1yl(4-NH2,4-COOH)}) in, do you know?
Reply text: midrange

Inquiry: Which class holds CC(C)C[C@@H](NC(=O)[C@@H](Cc1ccccc1)NC(=O)[C@H](N)Cc1ccccc1)C(=O)N[C@H](CCCCN)C(=O)N1CCc2[nH]ncc2C1 ?
Reply text: bottom end

Inquiry: Consider CC(C)C[C@@H](NC(=O)[C@@H](Cc1ccccc1)NC(=O)[C@H](N)Cc1ccccc1)C(=O)N[C@H](CCCCN)C(=O)N1CCN(c2ncccn2)CC1 . To which EC50 class does it belong?
Reply text: midrange

Inquiry: Could you place CC(C)C[C@@H](NC(=O)[C@@H](Cc1ccccc1)NC(=O)[C@H](N)Cc1ccccc1)C(=O)N[C@H](CCCCNC(=N)N)C(=O)N1CCC(N2CCC[C@H]2C(=O)O)CC1 [Compound (5)] (H-[dF][dF][dL][d(hArg)]-{Piperidinyl(4-(1-Pro-OH))}) in its proper category? Many thanks.
Reply text: bottom end

Inquiry: Determine which band this molecule sits in: CC(C)C[C@@H](NC(=O)[C@@H](Cc1ccccc1)NC(=O)[C@H](N)Cc1ccccc1)C(=O)N[C@H](CNC(=N)N)C(=O)N1CCCNCC1 [Compound (20)] (H-[dF][dF][dL][dAgp]-Homopiperazinyl)
Reply text: top end

Inquiry: Hey, which category is CC(C)C[C@@H](NC(=O)[C@@H](Cc1ccccc1)NC(=O)[C@H](N)Cc1ccccc1)C(=O)N[C@H](CCCN)C(=O)N1CCC(N2CCC[C@H]2C(=O)O)CC1 in, do you know?
Reply text: midrange

Inquiry: Which bin should I file CC(C)C[C@@H](NC(=O)[C@@H](Cc1ccccc1)NC(=O)[C@H](N)Cc1ccccc1)C(=O)N[C@H](CCCNC(C)C)C(=O)NC1(C(=O)O)CCN(C(=O)[C@@H](CCCNC(C)C)NC(=O)[C@@H](CC(C)C)NC(=O)[C@@H](Cc2ccccc2)NC(=O)[C@H](N)Cc2ccccc2)CC1 under?
Reply text: top end

Inquiry: GET /class?item= CC(C)C[C@@H](NC(=O)[C@@H](Cc1ccccc1)NC(=O)[C@H](N)Cc1ccccc1)C(=O)N[C@H](CCCCN)C(=O)N1CCC(C(=O)N2CCOCC2)CC1 [Compound (29)] (H-[dF][dF][dL][dK][Inp]-Morpholide)
Reply text: bottom end

Inquiry: Assign a category based on measured EC50 for CC(C)C[C@@H](NC(=O)[C@@H](Cc1ccccc1)NC(=O)[C@H](N)Cc1ccccc1)C(=O)N[C@H](CCCNC(=N)N)C(=O)N1CCCNCC1 [Compound (7)] (H-[dF][dF][dL][dR]-Homopiperazinyl) and give only the class name.
Reply text: bottom end

Inquiry: Which class is correct for the following molecule? Cc1cnc(CNC(=O)[C@@H](CCCCN)NC(=O)[C@@H](CC(C)C)NC(=O)[C@@H](Cc2ccccc2)NC(=O)[C@H](N)Cc2ccccc2)cn1
Reply text: bottom end

Inquiry: Assign a bin to CC(C)C[C@@H](N)C(=O)N[C@H](CCCN)C(=O)N[C@@H](CCCCNC(=O)[C@@H](CCCN)NC(=O)[C@@H](CC(C)C)NC(=O)[C@@H](Cc1ccccc1)NC(=O)[C@H](N)Cc1ccccc1)C(=O)O
Reply text: top end

Inquiry: // bin(item) where item = CC(C)C[C@@H](NC(=O)[C@@H](Cc1ccccc1)NC(=O)[C@H](N)Cc1ccccc1)C(=O)N[C@H](CCCCN)C(=O)N1CCN(c2nccs2)CC1
Reply text: midrange

Inquiry: Hi, small favor: classify CC(C)C[C@@H](NC(=O)[C@@H](Cc1ccccc1)NC(=O)[C@H](N)Cc1ccccc1)C(=O)N[C@H](CCCN)C(=O)NC1CCN(CC(N)=O)CC1 by its EC50 when you get a moment.
Reply text: top end

Inquiry: Bin? CCCC[C@@H](NC(=O)[C@@H](Cc1ccccc1)NC(=O)[C@H](N)Cc1ccccc1)C(=O)N[C@H](CNC(=N)N)C(=O)N1CCCNCC1 [Compound (21)] (H-[dF][dF][dNle][dAgp]-Homopiperazinyl)
Reply text: top end

* * *

Target: mouse kappa opioid receptor (mKOR) (Mus musculus, UniProt P33534)
Construct: Stimulation of Endogenous Mouse Kappa-Opioid Receptor in R1.G1 Cells; host or cells: R1.G1 mouse thymoma cells
Experiment: cell-based
Details: read-out: mKOR Efficacy(%)
Square brackets hold non-standard residues; d marks the D form. Side chains are listed from the residue outwards. Peptide text beside a SMILES is read from it. * marks the point of attachment. Piperidinyl(4-(1-Pro-OH)) = O=C(O)[C@@H]1CCCN1C1CCN(*)CC1; dAgb = N=C(N)NCC[C@@H](N)C(=O)O; Homopiperazinyl = C1CNCCN(*)C1; dAgp = N=C(N)NC[C@@H](N)C(=O)O; Morpholide = C1CN(*)CCO1; Api = NC1(C(=O)O)CCNCC1; Inp = O=C(O)C1CCNCC1
Classify: label 1 when Emax is strictly less than 90%; label 0 when Emax is not.

Inquiry: Field: below-cutoff. Rule: recorded Emax strictly less than 90%. Subject: CC(C)C[C@@H](NC(=O)[C@@H](Cc1ccccc1)NC(=O)[C@H](N)Cc1ccccc1)C(=O)N[C@H](CNC(=N)N)C(=O)N1CCCNCC1 [Compound (20)] (H-[dF][dF][dL][dAgp]-Homopiperazinyl)
Reply text: label 0

Inquiry: Identify whether the molecule CC(C)C[C@@H](NC(=O)[C@@H](Cc1ccccc1)NC(=O)[C@H](N)Cc1ccccc1)C(=O)N[C@H](CCNC(=N)N)C(=O)NC1(C(=O)O)CCN(C(=O)[C@@H](CCNC(=N)N)NC(=O)[C@@H](CC(C)C)NC(=O)[C@@H](Cc2ccccc2)NC(=O)[C@H](N)Cc2ccccc2)CC1 [Compound (88)] (H-[dF][dF][dL][dAgb][Api]([dAgb-dL-dF-dF])-OH) records Emax below 90%.
Reply text: label 1

Inquiry: # check: Emax < 90% for CC(C)C[C@@H](NC(=O)[C@@H](Cc1ccccc1)NC(=O)[C@H](N)Cc1ccccc1)C(=O)N[C@H](CCCNC(C)C)C(=O)N1CCCN(C(=N)N)CC1
Reply text: label 0

Inquiry: Threshold test, Emax < 90%: CC(C)C[C@@H](NC(=O)[C@@H](Cc1ccccc1)NC(=O)[C@H](N)Cc1ccccc1)C(=O)N[C@H](CCCCN)C(=O)N1CCC(C(=O)N2CCOCC2)CC1 [Compound (29)] (H-[dF][dF][dL][dK][Inp]-Morpholide)
Reply text: label 1

Inquiry: Does this molecule meet the criterion Emax < 90%? CC(C)C[C@@H](NC(=O)[C@@H](Cc1ccccc1)NC(=O)[C@H](N)Cc1ccccc1)C(=O)N[C@H](CCCCN)C(=O)N1CCC(n2c(=O)[nH]c3cc(Cl)ccc32)CC1
Reply text: label 1

Inquiry: Quick check: Emax of CC(C)C[C@@H](NC(=O)[C@@H](Cc1ccccc1)NC(=O)[C@H](N)Cc1ccccc1)C(=O)N[C@H](CNC(=N)N)C(=O)N1CCC(N2CCC[C@H]2C(=O)O)CC1 [Compound (14)] (H-[dF][dF][dL][dAgp]-{Piperidinyl(4-(1-Pro-OH))}) under 90%?
Reply text: label 1
